Assay: Half life in rat plasma after 2 hrs by LC/MS-MS analysis
Format: ADME, cell-free
reported.property: half-life (h)

P. O=C(N[C@H]1CNC1=O)OCc1ccc(C2CCCCC2)cc1
Q. O=C(N[C@H]1CNC1=O)OCCCCC1CCC(F)(F)CC1
R. O=C(N[C@H]1CNC1=O)OCCCCC1CCCCC1
Q: Reorder the list above by recorded half-life in ascending order. Please write the labels in the order that was asked for.
Ans: Q, R, P
(Q: 0.117 h, R: 0.2 h, P: 1.73 h)

----------
Assay: Kinetic solubility of the compound in PBS at pH 7.4 after 24 hrs by UPLC/MS analysis
Format: physicochemical
Details: read-out: Kinetic_solubility
reported.property: solubility kinetic at 24 h (µM)

A. O=C(N[C@H]1CNC1=O)OCCCCC1CCCCC1
B. CCCCc1ccc(COC(=O)N[C@H]2CNC2=O)cc1
C. O=C(N[C@H]1CNC1=O)OCc1ccc(C2CCCCC2)cc1
Q: From the records above, write out the order of decreasing solubility kinetic at 24 h. Please write the labels in the order that was asked for.
Ans: A, B, C
